# target entity: Nuclear receptor subfamily 1 group I member 2 (Homo sapiens) (UniProt O75469)
# Sequence (O75469 whole entry, looked up): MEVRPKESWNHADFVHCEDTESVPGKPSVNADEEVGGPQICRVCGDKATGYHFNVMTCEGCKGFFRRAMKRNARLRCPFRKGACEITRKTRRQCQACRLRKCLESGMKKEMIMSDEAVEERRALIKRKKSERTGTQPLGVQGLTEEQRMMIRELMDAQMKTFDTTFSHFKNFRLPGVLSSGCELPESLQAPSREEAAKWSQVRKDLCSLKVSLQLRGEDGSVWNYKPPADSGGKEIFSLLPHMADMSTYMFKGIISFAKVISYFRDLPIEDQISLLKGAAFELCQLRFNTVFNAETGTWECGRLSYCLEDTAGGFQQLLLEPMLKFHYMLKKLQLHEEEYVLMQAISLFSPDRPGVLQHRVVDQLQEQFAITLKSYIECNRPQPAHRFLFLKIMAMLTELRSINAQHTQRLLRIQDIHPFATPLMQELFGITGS
# experimental protocol: Human pregnane X receptor (PXR) small molecule agonists, qHTS assay (AID 1346982); further: nearly all actives have a fitted effect of over 35% in size
# settings: PXR-Luc HepG2, CYP3A4 luciferase reporter, 24 h; series mostly up to 92.4 µM
Records with an inconclusive call do not appear. Calls of active or inactive are those of the source. The call rests on the fitted dose curve; in most records, active means well fitted activation curve with a large enough effect in the repeat runs; inconclusive means weak or mixed curves; inactive means no such curve, though single readings can be large or run the other way.
Possible outcomes: active, inactive

>  <molecule>
CCC(=O)OC/C=C/c1ccccc1

>  <category label>
inactive

$$$$
>  <molecule>
CC(=O)N(c1onc(C)c1C)S(=O)(=O)c1ccc(N)cc1

>  <category label>
inactive

$$$$
>  <molecule>
CCCCC(=O)O[C@]1(C(=O)CO)[C@@H](C)C[C@H]2[C@@H]3CCC4=CC(=O)C=C[C@]4(C)[C@@]3(F)[C@@H](O)C[C@@]21C

>  <category label>
active

$$$$
>  <molecule>
CC#N

>  <category label>
inactive

$$$$
>  <molecule>
Cc1cc2nc3ccc(=[N+](C)C)cc-3sc2cc1N

>  <category label>
inactive

$$$$
>  <molecule>
CC(=N\O)/C(C)=N/O

>  <category label>
inactive

$$$$
>  <molecule>
CO[C@H]1O[C@H](CO)[C@@H](O)[C@H](O)[C@H]1O

>  <category label>
inactive

$$$$
>  <molecule>
CC(=O)[C@H]1CC[C@H]2[C@@H]3C[C@H](C)C4=CC(=O)CC[C@]4(C)[C@H]3[C@@H](O)C[C@]12C

>  <category label>
active

$$$$
>  <molecule>
Cc1ccccc1N1C(=O)c2cc(S(N)(=O)=O)c(Cl)cc2NC1C (stereo unspecified)

>  <category label>
active

$$$$
>  <molecule>
O=[N+]([O-])c1cccc(S(=O)(=O)NCCNS(=O)(=O)c2cccc([N+](=O)[O-])c2)c1

>  <category label>
active

$$$$
>  <molecule>
OCCSc1ccccc1

>  <category label>
inactive

$$$$
>  <molecule>
C[C@]12CCC(=O)C=C1C=C[C@@H]1[C@@H]2CC[C@@]2(C)[C@H]1CC[C@@]21CCC(=O)O1

>  <category label>
inactive

$$$$
>  <molecule>
CO[C@@]12[C@H](COC(N)=O)C3=C(C(=O)C(C)=C(N)C3=O)N1C[C@@H]1N[C@@H]12

>  <category label>
inactive

$$$$
>  <molecule>
COc1cc2[nH]c(=O)[nH]c(=O)c2cc1OC

>  <category label>
inactive

$$$$
>  <molecule>
Cc1cnc(C)c(C)n1

>  <category label>
inactive

$$$$
>  <molecule>
CCCCCCCCCCCC[N+](C)(C)CC(=O)[O-]

>  <category label>
inactive

$$$$
